# TGT: PfENT1 (Plasmodium falciparum, UniProt Q8IDM6)
# Construct: expressed in transfected cells; host or cells: fui1Δ yeast (Saccharomyces cerevisiae), co-expressing GFP
# Sequence (Q8IDM6 whole entry): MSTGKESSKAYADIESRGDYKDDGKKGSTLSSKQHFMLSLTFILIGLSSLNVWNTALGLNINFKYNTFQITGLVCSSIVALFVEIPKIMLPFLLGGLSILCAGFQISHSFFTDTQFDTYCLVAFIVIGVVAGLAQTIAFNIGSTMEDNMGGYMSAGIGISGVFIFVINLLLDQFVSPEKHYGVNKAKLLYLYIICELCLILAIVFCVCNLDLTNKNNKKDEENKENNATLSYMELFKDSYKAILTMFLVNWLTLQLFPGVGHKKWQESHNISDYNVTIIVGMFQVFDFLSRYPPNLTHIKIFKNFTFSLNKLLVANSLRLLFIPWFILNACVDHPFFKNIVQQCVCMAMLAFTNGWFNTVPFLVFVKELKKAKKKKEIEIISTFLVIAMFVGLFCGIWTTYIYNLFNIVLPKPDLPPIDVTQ
# Type: cell-based
# MEASUREMENT_PARAMETERS: primary HTS, compounds at 10 μM, 125 μM 5-FUrd
MEASUREMENT_LABEL: Avg Normalized % maximal activity (%)
Return type: number; implicit unit %.

# get_value(readout='Avg Normalized % maximal activity', item= C1CCN2C[C@@H]3C[C@@H](CN4CCCC[C@@H]34)[C@H]2C1.O=S(=O)(O)O )
5.81

Then O=C(C1CCCCC1)N1CCN(c2ccccn2)CC1 ?
3.69

Then COc1cc(C(=O)Nc2ccc(C(=O)c3cccs3)cc2)cc(OC)c1OC ?
3.31

Then COc1ccc(-c2cnc3ccccc3n2)cc1NC(=O)c1ccco1 ?
7.83

Then COc1cccc(C(=O)Nc2cccc(-c3nnc(-c4ccco4)o3)c2)c1 ?
54.12

Then O=C(Nc1ccc(Cl)c(-c2nc3ncccc3o2)c1)c1cccs1 ?
21.24

These measurements were taken from patent US9695193B2.
